FYI, the data here is from ChEMBL document CHEMBL5291721.

Measured AC50 on Androgen receptor (Rattus norvegicus, UniProt P15207) follows.
Sequence (P15207 whole entry S389L): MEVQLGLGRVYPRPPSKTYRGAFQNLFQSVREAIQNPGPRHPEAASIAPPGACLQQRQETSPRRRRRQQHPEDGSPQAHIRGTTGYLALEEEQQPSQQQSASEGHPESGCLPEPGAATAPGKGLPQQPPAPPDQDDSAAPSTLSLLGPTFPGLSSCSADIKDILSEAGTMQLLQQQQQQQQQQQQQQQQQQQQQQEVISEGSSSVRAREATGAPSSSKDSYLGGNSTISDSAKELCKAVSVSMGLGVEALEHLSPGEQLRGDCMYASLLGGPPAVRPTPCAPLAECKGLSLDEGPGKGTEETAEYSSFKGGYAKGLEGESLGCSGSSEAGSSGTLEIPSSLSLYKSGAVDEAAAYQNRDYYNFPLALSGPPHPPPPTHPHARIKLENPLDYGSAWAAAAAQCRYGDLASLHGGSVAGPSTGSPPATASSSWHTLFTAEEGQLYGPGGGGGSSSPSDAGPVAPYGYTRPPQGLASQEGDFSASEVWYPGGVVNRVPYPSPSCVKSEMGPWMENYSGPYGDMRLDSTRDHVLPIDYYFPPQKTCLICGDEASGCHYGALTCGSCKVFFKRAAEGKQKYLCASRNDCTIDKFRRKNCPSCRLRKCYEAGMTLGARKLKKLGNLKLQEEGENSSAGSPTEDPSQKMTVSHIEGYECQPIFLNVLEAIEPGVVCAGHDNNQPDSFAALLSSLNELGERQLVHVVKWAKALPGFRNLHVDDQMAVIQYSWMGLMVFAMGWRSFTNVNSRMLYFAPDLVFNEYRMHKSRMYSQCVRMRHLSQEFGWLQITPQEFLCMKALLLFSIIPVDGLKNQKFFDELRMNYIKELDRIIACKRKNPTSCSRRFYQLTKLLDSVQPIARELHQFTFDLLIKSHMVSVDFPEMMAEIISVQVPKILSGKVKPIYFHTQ

CC1(C)C(C=C(Cl)Cl)C1C(=O)OCc1cccc(Oc2ccccc2)c1 (stereo not given) :: > 30 µM
CC(C)(C)NCC(O)c1cc(Cl)c(N)c(Cl)c1 (stereo not given) :: > 30 µM
O=C1CN2Cc3c(ccc(Cl)c3Cl)N=C2N1 [ANAGRELIDE] :: > 30 µM

Provide each entry's AC50 from the list below.
1. C[C@]12CC[C@H](O)CC1=CC[C@@H]1[C@@H]2CC[C@]2(C)C(c3cccnc3)=CC[C@@H]12
2. CCN(CC)C(=O)C1CN2CCc3cc(OC)c(OC)cc3C2CC1OC(C)=O (stereo not given) [BENZQUINAMIDE]

> 30 µM
> 10 µM
